# System: murine peritoneal macrophages
# Protocol: Macrophage cytotoxicity (resazurin)
# Format: cell-based
# Condition Details: BALB/c, mouse, 48 h, pH 7.2
Record criterion met whenever Macrophages LD50 is at 40 µM or higher; record criterion not met when lower.

[
  {
    "Compound": "NC(=S)N/N=C(\\C=C\\c1ccc(Br)cc1)c1ccccc1 [Compound 5f]",
    "Classification": "criterion met"
  },
  {
    "Compound": "Cc1ccc(/C=C/C(=N\\NC(N)=S)c2ccccc2)cc1 [Compound 5b]",
    "Classification": "criterion met"
  },
  {
    "Compound": "NC(=S)N/N=C(\\C=C\\c1ccc(Cl)cc1)c1ccccc1 [Compound 5e]",
    "Classification": "criterion not met"
  },
  {
    "Compound": "NC(=S)NN=C(C=Cc1ccc(F)cc1)c1ccccc1 [Compound 5d]",
    "Classification": "criterion not met"
  }
]

---

# Target: human serum albumin (HSA) (Homo sapiens, UniProt P02768)
# Construct: purchased Sigma Aldrich, St. Louis, MO, USA
# Sequence (P02768 25-609): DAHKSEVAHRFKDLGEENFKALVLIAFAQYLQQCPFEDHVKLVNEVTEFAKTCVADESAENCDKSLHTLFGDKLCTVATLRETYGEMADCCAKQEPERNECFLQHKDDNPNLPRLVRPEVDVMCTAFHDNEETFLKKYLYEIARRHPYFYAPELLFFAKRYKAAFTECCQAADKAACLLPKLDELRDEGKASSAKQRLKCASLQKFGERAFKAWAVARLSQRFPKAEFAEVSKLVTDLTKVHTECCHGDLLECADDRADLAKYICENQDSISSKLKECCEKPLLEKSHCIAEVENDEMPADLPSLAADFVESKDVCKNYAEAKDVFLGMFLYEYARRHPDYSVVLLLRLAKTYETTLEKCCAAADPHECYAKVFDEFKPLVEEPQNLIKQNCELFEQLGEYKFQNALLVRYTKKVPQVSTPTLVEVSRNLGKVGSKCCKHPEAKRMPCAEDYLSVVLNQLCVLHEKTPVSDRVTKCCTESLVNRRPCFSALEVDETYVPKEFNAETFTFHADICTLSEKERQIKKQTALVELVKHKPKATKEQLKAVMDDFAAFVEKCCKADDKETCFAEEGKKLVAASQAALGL
# Protocol: HSA binding, steady-state fluorescence quenching
# Condition Details: all temperatures; read-out: Ka binding constant (order of magnitude)

[
  {
    "Molecule": "NC(=S)N/N=C(\\C=C\\c1ccc(Cl)cc1)c1ccccc1 [Compound 5e]",
    "Kd": "~100 µM"
  }
]
